assaySystem: DRB4*0101 (Homo sapiens, UniProt P01903+P13762, G164S)
assayText: biochemical
Format: binding
quantityName: IC50

CC[C@H](C)[C@H](NC(=O)[C@@H](NC(=O)[C@H](CC(=O)O)NC(=O)[C@H](CCSC)NC(=O)[C@@H](NC(=O)[C@@H](NC(=O)CNC(=O)[C@H](CCCCN)NC(=O)[C@@H]1CCCN1C(=O)[C@@H](NC(=O)[C@@H]1CCCN1C(=O)[C@H](CCCNC(=N)N)NC(=O)[C@H](CCC(N)=O)NC(=O)[C@@H](NC(=O)[C@H](CCCCN)NC(=O)[C@@H](NC(=O)[C@@H](N)C(C)C)C(C)C)C(C)C)[C@@H](C)O)[C@@H](C)O)C(C)C)[C@@H](C)CC)C(=O)O [NS5 576-592] | 0.108 µM

Let us move to another entry and its IC50.
Data request: Tell me the measured IC50 of CSCC[C@H](NC(=O)[C@H](C)NC(=O)[C@H](CCSC)NC(=O)[C@H](CCC(N)=O)NC(=O)[C@@H](NC(=O)[C@@H](NC(=O)[C@@H](N)CCSC)C(C)C)[C@@H](C)O)C(=O)N[C@H](C(=O)N[C@@H](CC(=O)O)C(=O)N[C@H](C(=O)N[C@H](C(=O)N1CCC[C@H]1C(=O)N[C@@H](Cc1ccccc1)C(=O)NCC(=O)N[C@@H](CCC(N)=O)C(=O)N[C@@H](CCC(N)=O)C(=O)N[C@@H](CCCNC(=N)N)C(=O)O)[C@@H](C)O)[C@@H](C)O)[C@@H](C)O [NS5 336-352] , please.
Data returned: 0.747 µM

Provenance of the data: paper PMC3794980
